Test: Selectivity index, ratio of IC50 for African green monkey Vero cells to MIC for Mycobacterium tuberculosis H37Rv ATCC 27294
Type: toxicity, cell-based
Conditions: read-out: Selectivity Index
Provide the recorded selectivity ratio for the entries that follow.
One number for each entry.

> print(dat)
                                        smi  readout.value
1  Fc1ccc(C(F)(F)F)cc1-c1csc(Nc2ccc(Cl)cc2)n1            2.4
2  Fc1ccc(C(F)(F)F)cc1-c1csc(Nc2cc(Cl)cc(Cl)c2)n1            3.3

Okay, now this compound:
q: Annotate the compound Cc1ccc(Nc2nc(-c3cc(C(F)(F)F)ccc3F)cs2)cc1 with its measured selectivity ratio.
a: 3.4
